Reported inhibition values follow for various compounds
system: Isocitrate dehydrogenase [NADP] cytoplasmic (Homo sapiens), O75874 [R132H]; assay: Inhibition of IDH1 R132H mutant (unknown origin) assessed as reduction in NADPH consumption using alpha-KG as substrate at 38 uM incubated for 5 mins by diaphorase/resazurin-coupled system relative to control
Sequence (O75874 whole entry R132H): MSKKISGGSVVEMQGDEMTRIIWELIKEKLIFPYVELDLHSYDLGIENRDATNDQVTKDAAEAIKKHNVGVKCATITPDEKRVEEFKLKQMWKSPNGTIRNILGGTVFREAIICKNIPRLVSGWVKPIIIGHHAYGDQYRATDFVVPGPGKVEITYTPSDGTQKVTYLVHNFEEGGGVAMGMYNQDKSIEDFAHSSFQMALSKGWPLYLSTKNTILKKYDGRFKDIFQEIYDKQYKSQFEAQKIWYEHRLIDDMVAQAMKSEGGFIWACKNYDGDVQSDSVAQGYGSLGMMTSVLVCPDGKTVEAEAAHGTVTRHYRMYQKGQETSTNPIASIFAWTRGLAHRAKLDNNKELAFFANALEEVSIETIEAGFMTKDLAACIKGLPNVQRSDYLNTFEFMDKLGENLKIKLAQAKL
Write the number in % without appending the unit.

The cases that follow already have their inhibition on record.
1) COc1ccc(OC)c(-n2c3c(cc(C(=O)NCc4ccc(Cl)cc4)c2=O)C(=O)CC(C)(C)C3)c1 35
2) COc1cccc(-n2c3c(cc(-c4nc(-c5ccc(Cl)cc5)cs4)c2=O)C(=O)CC(C)(C)C3)c1OC 64
3) CCOc1cccc(OCC)c1-n1c2c(cc(-c3nc(-c4ccc(Cl)cc4)cs3)c1=O)C(=O)CC(C)(C)C2 76
4) COc1ccc(OC)c(-n2c3c(cc(-c4ccn(-c5ccccc5)n4)c2=O)C(=O)CC(C)(C)C3)c1 84
5) COc1ccc(OC)c(-n2c3c(cc(-c4nc(-c5ccccc5)cs4)c2=O)C(=O)CC(C)(C)C3)c1 77
6) CC1(C)CC(=O)c2cc(-c3nc(-c4ccc(Cl)cc4)cs3)c(=O)n(-c3ccccc3Oc3ccccc3)c2C1 30

The compound identified as "CCc1cccc(CC)c1-n1c(C)c(C(=O)NC(C)C)cc(-c2nc(-c3ccc(Cl)cc3)cs2)c1=O" registered its inhibition at 47

The compound identified as "CCc1cccc(CC)c1-n1c(C)c(C(=O)NCCCNC)cc(-c2nc(-c3ccc(Cl)cc3)cs2)c1=O" registered its inhibition at 104

----------
assay: Drug level in human U87MG cells expressing IDH1 R132H mutation transfected in NCr mouse plasma at 30 mg/kg, po measured after 24 hrs by LC-MS/MS analysis; assay type: ADME, organism-based, U-87MG ATCC; details: read-out: Drug uptake
Value kind: concentration at 24 h (µM)
Write the number in µM without appending the unit.

The compound identified as "CCc1ccc(Cl)cc1-n1c(C=C(C)C)c(C(=O)N2CCNCC2)cc(-c2nc(-c3ccc(Cl)cc3)cs2)c1=O" registered its concentration at 24 h at 9.5

----------
test: AUClast in CD1 mouse brain at 30 mg/kg, po measured up to 24 hrs by LC-MS/MS analysis; format: ADME, organism-based; details: in vivo
Value kind: AUClast (ng·h/g)
Write the number in ng·h/g without appending the unit.

The compound identified as "CCc1ccc(Cl)cc1-n1c(C=C(C)C)c(C(=O)N2CCNCC2)cc(-c2nc(-c3ccc(Cl)cc3)cs2)c1=O" registered its AUClast at 7000

----------
target: Isocitrate dehydrogenase [NADP] cytoplasmic (Homo sapiens, UniProt O75874, R132C); test: Inhibition of IDH1 R132C mutant (unknown origin) assessed as reduction in NADPH consumption using alpha-KG as substrate incubated for 5 mins by diaphorase/resazurin-coupled system
Sequence (O75874 2-414 R132C limits assumed): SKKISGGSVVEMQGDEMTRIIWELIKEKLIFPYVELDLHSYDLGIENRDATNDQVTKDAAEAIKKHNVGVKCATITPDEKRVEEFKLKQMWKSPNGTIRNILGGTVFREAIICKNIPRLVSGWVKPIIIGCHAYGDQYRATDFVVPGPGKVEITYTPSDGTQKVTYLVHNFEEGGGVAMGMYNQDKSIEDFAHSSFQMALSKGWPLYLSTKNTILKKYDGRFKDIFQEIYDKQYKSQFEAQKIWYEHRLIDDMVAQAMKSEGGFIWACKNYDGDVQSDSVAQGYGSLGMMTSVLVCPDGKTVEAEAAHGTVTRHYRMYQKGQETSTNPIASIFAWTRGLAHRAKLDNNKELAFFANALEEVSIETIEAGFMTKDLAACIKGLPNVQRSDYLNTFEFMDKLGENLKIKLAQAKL
Value kind: pIC50
Schema: pIC50 number; meaning minus log10 of the concentration expressed in molar units.

The cases that follow already have their pIC50 on record.
Compound	pIC50
CCc1cccc(CC)c1-n1c(C)c(C(=O)NCCOC)cc(-c2nc(-c3ccc(Cl)cc3)cs2)c1=O	6.14
CCc1cccc(CC)c1-n1c(CC(C)C)c(C(=O)N2CCNCC2)cc(-c2nc(-c3ccc(Cl)cc3)cs2)c1=O	6.92

Please turn your attention to the following entry.
GET /values?item= CCc1cccc(CC)c1-n1c(C=C(C)C)c(C(=O)N2CCNC(CC)C2)cc(-c2nc(-c3ccc(Cl)cc3)cs2)c1=O (centres undefined) &system= Isocitrate dehydrogenase [NADP] cytoplasmic (Homo sapiens, UniProt O75874, R132C) returns pIC50: 7.14

----------
target: Isocitrate dehydrogenase [NADP] cytoplasmic (Homo sapiens, UniProt O75874, R132H); assay: Inhibition of IDH1 R132H mutant (unknown origin) assessed as reduction in NADPH consumption using alpha-KG as substrate incubated for 5 mins by diaphorase/resazurin-coupled system
Sequence (O75874 2-414 R132H limits assumed): as the sequence (O75874 2-414 R132C limits assumed) above, with C131H counted along it
Value kind: IC50 (nM)
Write the number in nM without appending the unit.

The cases that follow already have their IC50 on record.
Molecule	Unit symbol	IC50
CCc1cccc(CC)c1-n1c(C)c(C(=O)NCCO)cc(-c2nc(-c3ccc(Cl)cc3)cs2)c1=O	nM	420
COc1cccc(C(=O)O)c1-n1c2c(cc(-c3nc(-c4ccc(Cl)cc4)cs3)c1=O)C(=O)CC(C)(C)C2	nM	910

GET /values?item= CCc1cccc(CC)c1-n1c(C=C(C)C)c(C(=O)N2CCNC(C#N)C2)cc(-c2nc(-c3ccc(Cl)cc3)cs2)c1=O (centres undefined) &system= Isocitrate dehydrogenase [NADP] cytoplasmic (Homo sapiens, UniProt O75874, R132H) returns IC50: 160

GET /values?item= CCc1cccc(CC)c1-n1c(C=C(C)C)c(C(=O)N2CCNC(CO)C2)cc(-c2nc(-c3ccc(Cl)cc3)cs2)c1=O (centres undefined) &system= Isocitrate dehydrogenase [NADP] cytoplasmic (Homo sapiens, UniProt O75874, R132H) returns IC50: 49

----------
target: Isocitrate dehydrogenase [NADP] cytoplasmic (Homo sapiens, UniProt O75874, R132C); experiment: Inhibition of IDH1 R132C mutant (unknown origin) assessed as reduction in NADPH consumption using alpha-KG as substrate incubated for 5 mins by diaphorase/resazurin-coupled system
Value kind: log10(IC50) (log10 of the value in nM)
Transform log10 | Measure IC50 | Unit nM

Molecule	log10(IC50)
CC(C)=Cc1c(C(=O)N2CCNCC2)cc(-c2nc(-c3ccc(Cl)cc3)cs2)c(=O)n1-c1ccccc1	3.51
CCc1ccc(OC)cc1-n1c(C=C(C)C)c(C(=O)N2CCNCC2)cc(-c2nc(-c3ccc(Cl)cc3)cs2)c1=O	1.88
CCc1cccc(CC)c1-n1c(C=C(C)C)c(C(=O)N2CCNC(C#N)C2)cc(-c2nc(-c3ccc(Cl)cc3)cs2)c1=O (stereo not drawn)	1.75
CCc1ccccc1-n1c(C=C(C)C)c(C(=O)N2CCNCC2)cc(-c2nc(-c3ccc(Cl)cc3)cs2)c1=O	2.20

The molecule identified as "CCc1cccc(CC)c1-n1c(C=C(C)C)c(C(=O)N2C[C@H]3CC[C@@H](C2)N3)cc(-c2nc(-c3ccc(Cl)cc3)cs2)c1=O" registered its log10(IC50) at 1.78

The molecule identified as "CCOc1ccccc1-n1c2c(cc(-c3nc(-c4ccc(Cl)cc4)cs3)c1=O)C(=O)CC(C)(C)C2" registered its log10(IC50) at 2.61

The molecule identified as "CC1(C)CC(=O)c2cc(-c3nc(-c4ccc(Cl)cc4)cs3)c(=O)n(-c3ccccc3OC(F)(F)F)c2C1" registered its log10(IC50) at 2.45

----------
tested on: Isocitrate dehydrogenase [NADP] cytoplasmic (Homo sapiens), O75874 [R132H]; assay: Inhibition of IDH1 R132H mutant (unknown origin) assessed as reduction in NADPH consumption using alpha-KG as substrate at 38 uM incubated for 5 mins by diaphorase/resazurin-coupled system relative to control
Reported inhibition values follow for various compounds
Write the number in % without appending the unit.

The cases that follow already have their inhibition on record.
1) CC1(C)CC(=O)c2cc(-c3nc(-c4ccc(Cl)cc4)cs3)c(=O)n(-c3ccccc3)c2C1 47
2) COc1ccc(OC)c(-n2c3c(cc(-c4nc(-c5ccc(Cl)cc5)cs4)c2=O)C(=O)CCC3)c1 62
3) CCc1cccc(CC)c1-n1c(CCC(F)(F)F)c(C(=O)N2CCNCC2)cc(-c2nc(-c3ccc(Cl)cc3)cs2)c1=O 101
4) COc1cccc(C(=O)O)c1-n1c2c(cc(-c3nc(-c4ccc(Cl)cc4)cs3)c1=O)C(=O)CC(C)(C)C2 102
5) COc1cccc(OC)c1-n1c2c(cc(-c3nc(-c4ccc(Cl)cc4)cs3)c1=O)C(=O)CC(C)(C)C2 87

The compound identified as "CCc1cccc(CC)c1-n1c(CC2CC2)c(C(=O)N2CCNCC2)cc(-c2nc(-c3ccc(Cl)cc3)cs2)c1=O" registered its inhibition at 107

The compound identified as "COc1ccc(OC)c(-n2c3c(cc(-c4cccc(-c5ccc(Cl)cc5)n4)c2=O)C(=O)CC(C)(C)C3)c1" registered its inhibition at 67

The compound identified as "CCc1cccc(CC)c1-n1c(C)c(C(=O)O)cc(-c2nc(-c3ccc(Cl)cc3)cs2)c1=O" registered its inhibition at 102

----------
target: Isocitrate dehydrogenase [NADP] cytoplasmic (Homo sapiens, UniProt O75874, R132H); experiment: Inhibition of IDH1 R132H mutant (unknown origin) assessed as reduction in NADPH consumption using alpha-KG as substrate incubated for 5 mins by diaphorase/resazurin-coupled system
Reported log10 of IC50 values follow for various compounds
Transform log10 | Measure IC50 | Unit nM

Compound	log10 of IC50
COc1c(C(=O)O)cccc1-n1c2c(cc(-c3nc(-c4ccc(Cl)cc4)cs3)c1=O)C(=O)CC(C)(C)C2	4.15

The compound identified as "COc1ncccc1-n1c2c(cc(-c3nc(-c4ccc(Cl)cc4)cs3)c1=O)C(=O)CC(C)(C)C2" registered its log10 of IC50 at 3.00

The compound identified as "CCc1cccc(CC)c1-n1c(C=C(C)C)c(C(=O)N2CCNC3(CC3)C2)cc(-c2nc(-c3ccc(Cl)cc3)cs2)c1=O" registered its log10 of IC50 at 1.89

The compound identified as "CCc1ccc(C)cc1-n1c(C=C(C)C)c(C(=O)N2CCNCC2)cc(-c2nc(-c3ccc(Cl)cc3)cs2)c1=O" registered its log10 of IC50 at 1.64

The compound identified as "CCc1cccc(CC)c1-n1c(CC(C)C)c(C(=O)N2CCNCC2)cc(-c2nc(-c3ccc(Cl)cc3)cs2)c1=O" registered its log10 of IC50 at 2.04

The compound identified as "COc1ccc(OC)c(-n2c3c(cc(-c4nc(-c5ccc(Cl)cc5)cs4)c2=O)C(=O)CNC3)c1" registered its log10 of IC50 at 3.90

The compound identified as CCc1cccc(CC)c1-n1c(C=C(C)C)c(C(=O)N2CCNC(CC)C2)cc(-c2nc(-c3ccc(Cl)cc3)cs2)c1=O (stereo not drawn) registered its log10 of IC50 at 2.00
